- target: IAPP (Fluos-IAPP, mostly monomers) (Homo sapiens)
- Construct: made in house; host or cells: chemical synthesis
- Sequence (P10997 34-70 limits assumed): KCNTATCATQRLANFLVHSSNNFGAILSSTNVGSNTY
- assay-procedure: Fluorescence spectroscopic titration of Fluos-IAPP
- Assay type: binding
- cond: Fluos-IAPP 5 nM, 10 mM sodium phosphate pH 7.4, 1% HFIP, room temperature, 1/1 binding model; mean (±SD) of three binding curves; SD; read-out: app. Kd of interaction with Fluos-IAPP
Ends that are not written are not given here.
observed-property: pKd
Would you please state pKd, meaning minus log10 of the concentration in mol/L, as a bare number?

# seq-text, target, pKd
rows = [
    ("KEFKRIVQRIKDFLRNLVPRTES [LL-37(15-37)]", "IAPP (Fluos-IAPP, mostly monomers) (Homo sapiens)", 7.50),
]

Need pKd, item LLGDFFRKSKEKIG [LL-37(1-14)]
5.60
